- target_or_test_system: recombinant MaltOBP1 (Monochamus alternatus)
- assay_explanation: Competitive ligand-binding assay (1-NPN displacement)
- assay_setup: fluorescence competitive binding
test_readout: binding affinity to MaltOBP1 (in words)

Here is how some molecules turned out for binding affinity to MaltOBP1 (in words).
Can you look up the measured binding affinity to MaltOBP1 (in words) of CC1=CC(=O)[C@H]2C[C@@H]1C2(C)C [(−) -verbenone] for me? high binding affinity

Now give it for CC1=CCC2C(C1)C2(C)C (single isomer, unassigned; (+)) [(+)-3-carene] too. no binding affinity

Also `C=CC(=C)CCC=C(C)C` ? no binding affinity

Same read-out for C=C1CC/C=C(\C)CC[C@@H]2[C@@H]1CC2(C)C [(−)-trans-caryophyllene] ? high binding affinity

Try `C=C1[C@H]2CC[C@H](C2)C1(C)C` next. no binding affinity

---
Consider the molecule C=C(C)[C@H]1CC=C(C)CC1 [(R)-(+)-limonene] and give its measured binding affinity to MaltOBP1 (in words). high binding affinity

And C=C1CCC2CC1C2(C)C (stereo not shown) ? high binding affinity

* * *

Field: pIC50. Provide a value for each of the compounds that follow.
- target_or_test_system: recombinant MaltOBP1 (Monochamus alternatus)
- assay_explanation: Competitive ligand-binding assay (1-NPN displacement)
Remember the convention: pIC50 equals -log10 of concentration in molar.

// pIC50 lookup, key: C=C1CCC2CC1C2(C)C (stereo not drawn) [β- Pinene] 4.41

Would you kindly repeat that for C=C1CC/C=C(\C)CC[C@@H]2[C@@H]1CC2(C)C [(−)-trans-caryophyllene] ? 5.15

* * *

- target_or_test_system: recombinant MaltOBP1 (Monochamus alternatus, UniProt A6YIT8)
- Sequence (A6YIT8 entry or part of it): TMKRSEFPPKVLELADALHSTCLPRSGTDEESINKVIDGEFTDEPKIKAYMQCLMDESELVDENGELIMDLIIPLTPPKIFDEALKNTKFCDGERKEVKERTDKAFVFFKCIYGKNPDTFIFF
- assay_explanation: Competitive ligand-binding assay (1-NPN displacement)
- assay_setup: competitive displacement of 1-NPN from MaltOBP1; ligands in methanol; read-out: IC50
Would you kindly list IC50 for each of these compounds?
Give the number; µM is assumed, so skip it.

Give recombinant MaltOBP1 (Monochamus alternatus, UniProt A6YIT8) IC50 for C=C(C)[C@H]1CC=C(C)CC1 [(R)-(+)-limonene] 21.7

Query CC1=CC(=O)[C@H]2C[C@@H]1C2(C)C [(−) -verbenone] next 63.1
